Tested on: HeLa
Experiment: Cytotoxicity against human HeLa cells after 48 hrs by MTT assay
Format: functional, cell-based
Consider the following compounds; for each one, report its IC50.
Numbers only, in µM.

# example entries with known answers
>>> observed_value("O=c1oc2ccccc2c(-c2ccc(OCCN3CCCC3)cc2)c1-c1ccc(OCCN2CCCC2)cc1")
8.25
>>> observed_value("CCN(CC)CCOc1ccc(-c2c(-c3ccccc3)c3ccc(OCCN(CC)CC)cc3oc2=O)cc1")
9.58

Task item: Requested read-out: IC50. Entry: CN(C)CCOc1ccc(-c2c(-c3ccccc3)c3ccc(OCCN(C)C)cc3oc2=O)cc1
Reply: 8.49

====

Experiment: Cytotoxicity against mouse skull osteoblasts at 1 uM after 48 hrs by MTT assay relative to control
Type: cell-based
Conditions: osteoblast
Test Readout: Activity (%)
One number for each entry, in %.

I would be grateful if you could provide Activity for each of the following entries.
1. CCN(CC)CCOc1ccc(-c2c(-c3ccccc3)c3ccc(OCCN(CC)CC)cc3oc2=O)cc1
2. O=c1oc2cc(OCCN3CCCCC3)ccc2c(-c2ccccc2)c1-c1ccc(OCCN2CCCCC2)cc1
3. CN1CCN(CCOc2ccc(-c3c(-c4ccccc4)c4ccc(OCCN5CCN(C)CC5)cc4oc3=O)cc2)CC1
4. O=c1oc2cc(OCCN3CCCC3)ccc2c(-c2ccccc2)c1-c1ccc(OCCN2CCCC2)cc1

Reply:
[-7.2, -6.5, -2.4, -2.5]

====

Exercise: for every item that follows, state its recorded pIC50.
System: A549
Assay: Cytotoxicity against human A549 cells after 48 hrs by MTT assay
Type: functional, cell-based
Details: A549, 48 h
pIC50: −log10 of the molar value.

>>> observed_value("O=c1oc2cc(OCCN3CCOCC3)ccc2c(-c2ccccc2)c1-c1ccc(OCCN2CCOCC2)cc1")
"< 4.00"

Could I get pIC50 for every one of these entries?
1. O=c1oc2ccccc2c(-c2ccc(OCCN3CCOCC3)cc2)c1-c1ccc(OCCN2CCOCC2)cc1
2. CN(C)CCOc1ccc(-c2c(-c3ccc(OCCN(C)C)cc3)c3ccccc3oc2=O)cc1

Reply:
1: < 4.00; 2: < 4.00

Hey, just so you know, these numbers are from ChEMBL document CHEMBL3112392.
